Hey, just so you know, these numbers are from ChEMBL document CHEMBL1158364.

- System: Gastric mucosa
- test-name: Inhibition of lipid peroxidation assessed as malondialdehyde level per mg of protein in gastric mucosa isolated from albino rat treated 60 mg/kg, po by UV spectrophotometry
- Type: functional
Entries and their Activity

[
  {
    "chemical-smiles": "O=C1/C(=C/c2ccc(F)cc2)C=C(c2ccc(Cl)cc2)N1Cc1ccccc1",
    "Activity [nmol/mg protein]": 0.401
  },
  {
    "chemical-smiles": "COc1cc(/C=C2\\C=C(c3ccc(Cl)cc3)N(Cc3ccccc3)C2=O)ccc1O",
    "Activity [nmol/mg protein]": 0.558
  },
  {
    "chemical-smiles": "COc1ccc(/C=C2\\C=C(c3ccc(Cl)cc3)OC2=O)cc1OC",
    "Activity [nmol/mg protein]": 0.533
  },
  {
    "chemical-smiles": "COc1ccc(/C=C2\\C=C(c3ccc(Cl)cc3)OC2=O)cc1",
    "Activity [nmol/mg protein]": 0.545
  },
  {
    "chemical-smiles": "O=C1OC(c2ccc(Cl)cc2)=C/C1=C\\c1ccc(Cl)cc1Cl",
    "Activity [nmol/mg protein]": 0.388
  }
]
